Reference source for all entries: paper PMC11864945

Attribute: Mean stability sample ±SD
Test Details: Stability of the analytes in beagle dog plasma (bench top, refrigerator, freeze–thaw, autosampler, short and long term storage)
Format: physicochemical
Condition Details: refrigerator, 4°C, 30 h; dog plasma; LQC; n = 5
Property: Mean stability sample ±SD (ng/mL)

{"Compound": "O=C(C1CCCCC1)N1CC(=O)N2CCc3ccccc3C2C1 (stereo not shown)", "Unit Abbrev": "ng/mL", "Endpoint Result": 44.17}
{"Compound": "COC(=O)Nc1nc2ccc(Sc3ccccc3)cc2[nH]1", "Unit Abbrev": "ng/mL", "Endpoint Result": 29.11}
{"Compound": "CN1CCCN=C1/C=C/c1cccs1", "Unit Abbrev": "ng/mL", "Endpoint Result": 11.66}
{"Compound": "COC(=O)Nc1nc2ccc([S+]([O-])c3ccccc3)cc2[nH]1 (stereo not shown)", "Unit Abbrev": "ng/mL", "Endpoint Result": 11.46}

###

Test Details: in vivo
Condition Details: beagle, dog, po, AUC0–inf

{"Molecule": "CN1CCCN=C1/C=C/c1cccs1 [Pyrantel, pyrantel]", "AUC(0-inf)": "489 ng·h/mL"}
{"Molecule": "COC(=O)Nc1nc2ccc(Sc3ccccc3)cc2[nH]1 [Fenbendazole, fenbendazole]", "AUC(0-inf)": "1680 ng·h/mL"}
{"Molecule": "O=C(C1CCCCC1)N1CC(=O)N2CCc3ccccc3C2C1 (stereo not drawn) [Praziquantel, praziquantel]", "AUC(0-inf)": "3370 ng·h/mL"}

###

Test Details: Bioequivalence / pharmacokinetic study of compound febantel tablets after single oral dose, plasma levels by UPLC–MS/MS
Condition Details: beagle, dog, Tmax, test product (T), single oral tablet, 38 beagle dogs, fasting, mean ± SD

{"Molecule": "COC(=O)Nc1nc2ccc([S+]([O-])c3ccccc3)cc2[nH]1 (stereo not shown) [Qxfendazole, oxfendazole]", "Tmax [h]": 7.08}

###

Test Details: in vivo
Condition Details: beagle, dog, po, AUC0–30

{"Molecule": "COC(=O)Nc1nc2ccc(Sc3ccccc3)cc2[nH]1", "Unit Abbrev": "ng·h/mL", "AUC(0-t)": 1440}
{"Molecule": "O=C(C1CCCCC1)N1CC(=O)N2CCc3ccccc3C2C1 (stereo not drawn)", "Unit Abbrev": "ng·h/mL", "AUC(0-t)": 3320}
{"Molecule": "CN1CCCN=C1/C=C/c1cccs1", "Unit Abbrev": "ng·h/mL", "AUC(0-t)": 423}

###

Test Details: Stability of the analytes in beagle dog plasma (bench top, refrigerator, freeze–thaw, autosampler, short and long term storage)
Type: physicochemical
Condition Details: long term, −80°C, 120 days; dog plasma; LQC; n = 5
Each item that follows carries a reported Mean stability sample ±SD.

{"Compound": "O=C(C1CCCCC1)N1CC(=O)N2CCc3ccccc3C2C1 (stereo not shown)", "Unit Abbrev": "ng/mL", "Mean stability sample ±SD": 42.50}
{"Compound": "CN1CCCN=C1/C=C/c1cccs1", "Unit Abbrev": "ng/mL", "Mean stability sample ±SD": 10.63}
{"Compound": "COC(=O)Nc1nc2ccc(Sc3ccccc3)cc2[nH]1", "Unit Abbrev": "ng/mL", "Mean stability sample ±SD": 30.69}
{"Compound": "COC(=O)Nc1nc2ccc([S+]([O-])c3ccccc3)cc2[nH]1 (stereo not shown)", "Unit Abbrev": "ng/mL", "Mean stability sample ±SD": 11.28}

###

Test Details: Stability of the analytes in beagle dog plasma (bench top, refrigerator, freeze–thaw, autosampler, short and long term storage)
Type: physicochemical
Condition Details: long term, −80°C, 120 days; dog plasma; LQC

{"Compound": "COC(=O)Nc1nc2ccc([S+]([O-])c3ccccc3)cc2[nH]1 (stereo not shown) [Qxfendazole, oxfendazole]", "Accuracy": "93.96%"}
{"Compound": "COC(=O)Nc1nc2ccc(Sc3ccccc3)cc2[nH]1 [Fenbendazole, fenbendazole]", "Accuracy": "102.31%"}
{"Compound": "CN1CCCN=C1/C=C/c1cccs1 [Pyrantel, pyrantel]", "Accuracy": "88.57%"}
{"Compound": "O=C(C1CCCCC1)N1CC(=O)N2CCc3ccccc3C2C1 (stereo not shown) [Praziquantel, praziquantel]", "Accuracy": "94.44%"}
